The reported measurements were obtained from patent US10323022B2.

The following are reported pIC50 results, target or system TrkA (Homo sapiens (Human)).
pIC50: −log10 of the molar value. Counter-ions that a name gives are not always drawn.

Known results for compounds:
* COCCN1C[C@@H](NC(=O)Nc2c(C)c(OC(=O)N(C)C)nn2-c2ccccc2)[C@H](c2ccc(F)c(F)c2)C1 | > 7.00
* COCCN1C[C@@H](NC(=O)Nc2cc(COC3CCNCC3)nn2-c2ccccc2)[C@H](c2ccc(F)c(F)c2)C1 [Example 589, dihydrochloride] | 6.00 to 7.00

Field: next compound
q: Under TrkA (Homo sapiens (Human)): pIC50 value of "COCCN1C[C@@H](NC(=O)Nc2cc(-c3ccc(Cl)cc3)nn2C)[C@H](c2ccc(F)c(F)c2)C1" ?
a: > 7.00

###

Below are pIC50 values measured for TrkA (Homo sapiens (Human), UniProt P04629).
pIC50: −log10 of the molar value. Structures can show the parent of a compound that is named as a salt.

Here's what some known entries look like.
* COCCN1C[C@@H](NC(=O)Nc2c(F)c(-c3cnn(C)c3)nn2-c2ccccc2)[C@H](c2ccc(F)c(F)c2)C1 | > 7.00
* COCCN1C[C@@H](NC(=O)Nc2c(C)c(OC[C@H](C)O)nn2-c2ccccc2)[C@H](c2cc(F)cc(F)c2)C1 [Example 537, dihydrochloride] | > 7.00
* COCCOc1nn(-c2ccccc2)c(NC(=O)N[C@@H]2CN(CCOC)C[C@H]2c2ccc(F)c(F)c2)c1C | > 7.00
* COCCN1C[C@@H](NC(=O)Nc2c(Cl)c(CCOC(C)=O)nn2-c2ccccc2)[C@H](c2ccc(F)c(F)c2)C1 | > 7.00
* COCCN1C[C@@H](NC(=O)Nc2c3c(nn2-c2ccccc2)CN(C(=O)OC(C)(C)C)C3)[C@H](c2ccccc2)C1 | 5.00 to 6.00

q: Report pIC50 for "COC[C@H](N1C[C@@H](NC(=O)Nc2c(C)c(OC[C@H](C)O)nn2-c2ccccc2)[C@H](c2ccc(F)c(F)c2)C1)C(F)(F)F" tested on TrkA (Homo sapiens (Human), UniProt P04629).
Sequence (P04629 33-796): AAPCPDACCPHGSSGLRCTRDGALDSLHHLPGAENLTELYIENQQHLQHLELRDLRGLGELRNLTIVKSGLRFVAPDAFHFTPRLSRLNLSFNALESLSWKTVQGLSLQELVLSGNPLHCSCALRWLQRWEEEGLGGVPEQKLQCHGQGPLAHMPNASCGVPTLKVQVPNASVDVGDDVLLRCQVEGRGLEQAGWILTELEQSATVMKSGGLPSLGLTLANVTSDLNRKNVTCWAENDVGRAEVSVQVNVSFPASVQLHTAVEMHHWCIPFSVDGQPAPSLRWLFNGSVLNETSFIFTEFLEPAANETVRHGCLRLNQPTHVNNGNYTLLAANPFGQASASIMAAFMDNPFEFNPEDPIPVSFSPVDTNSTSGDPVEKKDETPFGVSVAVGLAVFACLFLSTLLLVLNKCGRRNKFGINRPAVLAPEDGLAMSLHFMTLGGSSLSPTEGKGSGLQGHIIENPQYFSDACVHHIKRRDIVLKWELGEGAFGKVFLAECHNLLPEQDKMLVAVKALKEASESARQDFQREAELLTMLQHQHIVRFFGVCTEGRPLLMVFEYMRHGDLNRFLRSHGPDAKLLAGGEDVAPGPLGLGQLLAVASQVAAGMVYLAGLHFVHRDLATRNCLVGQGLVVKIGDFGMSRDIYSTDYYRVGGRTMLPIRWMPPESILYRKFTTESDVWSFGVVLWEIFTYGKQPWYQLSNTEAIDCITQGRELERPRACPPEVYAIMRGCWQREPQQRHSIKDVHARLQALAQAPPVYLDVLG
a: > 7.00

q: Which measured pIC50 belongs to "CC[C@@H](O)COc1nn(-c2ccccc2)c(NC(=O)N[C@@H]2CN(CCOC)C[C@H]2c2ccc(F)cc2)c1C" , tested on TrkA (Homo sapiens (Human), UniProt P04629)?
a: > 7.00

###

Entries below carry reported pIC50 on TrkA (Homo sapiens (Human), UniProt P04629).
pIC50: −log10 of the molar value.

* CNCCN1C[C@@H](NC(=O)Nc2c3c(nn2-c2ccccc2)CCC3)[C@H](c2ccc(F)cc2)C1 (relative stereo) [Example 256] | 6.00 to 7.00

q: Give recorded pIC50 with TrkA (Homo sapiens (Human), UniProt P04629) for the following molecule: CCc1c(-c2cnn(C)c2)nn(-c2ccccc2)c1NC(=O)N[C@@H]1CN(CCOC)C[C@H]1c1ccc(F)c(F)c1 [Example 311]
a: > 7.00

###

- Target System: TrkA (Homo sapiens (Human), UniProt P04629)
- Assay Text: TrkA Omnia Assay
- Type: biochemical
- Condition Label: averaged IC50; 20 nM enzyme, 500 μM ATP, 10 μM peptide substrate
pIC50: −log10 of the molar value. Counter-ions that a name gives are not always drawn.
Measured Metric: pIC50

- COCCN1C[C@@H](NC(=O)Nc2c(Br)c(COC3CCNCC3)nn2-c2ccccc2)[C@H](c2ccc(F)c(F)c2)C1 [Example 591, dihydrochloride]: > 7.00
- COCCN1C[C@@H](NC(=O)Nc2c(C)c(-c3cc(C)nn3C)nn2-c2ccccc2)[C@H](c2ccc(F)c(F)c2)C1 [Example 308]: > 7.00
- COCCN1C[C@@H](NC(=O)Nc2c(C)c(-c3cnn(C)c3)nn2-c2ccccc2)[C@H](c2ccc(F)cc2)C1 [Example 441]: > 7.00
- COCCN1C[C@@H](NC(=O)Nc2c(C)c(-c3ccc(=O)n(C(C)C)c3)nn2-c2ccccc2)[C@H](c2ccc(F)cc2)C1 [Example 536]: > 7.00
- COCCN1C[C@@H](NC(=O)Nc2c(Cl)c([C@@H]3CCCN3C(=O)OC(C)(C)C)nn2-c2ccccc2)[C@H](c2ccc(F)c(F)c2)C1 [Example 573]: 6.00 to 7.00

Please look at the following molecule next.
q: Quick one: pIC50 of COCCN1C[C@@H](NC(=O)Nc2cc(-c3ccccc3OC)nn2C)[C@H](c2ccc(F)c(F)c2)C1 [Example 106] ?
a: 6.00 to 7.00
